Target: T1, monovalent hVISTA-ECD (human VISTA extracellular domain with His tail) (human, UniProt Q9H7M9 33-193)
T1 construct: analyte flowed over captured antibody; also called huVISTA-His
T1 sequence (Q9H7M9 other isoform, or with tags, fused parts or gaps limits assumed): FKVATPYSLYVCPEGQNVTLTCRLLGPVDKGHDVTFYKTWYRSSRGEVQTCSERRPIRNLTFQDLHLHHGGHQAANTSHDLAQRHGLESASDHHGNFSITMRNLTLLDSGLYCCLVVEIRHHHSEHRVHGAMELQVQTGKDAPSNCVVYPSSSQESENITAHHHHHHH
Experiment: SPR, pH 6.0
Experimental: Binding of several preparations of each of the '029 progeny clones and of the parent '029 antibodies, formatted as IgG1.3 antibodies, to human VISTA at pH 6.0 and 7.4 was measured by Surface plasmon resonance (SPR). SPR analysis was performed to measure koff and KD binding affinity measurements for VISTA Abs at acidic and neutral pHs using a Biacore® T100 instrument (GE Healthcare). […] The affinity constant, KD was calculated as the ratio of rate constants koff/kₒₙ for each VISTA antibody. […]
Recorded Kd values for a group of binders are listed next.

binder: P1-064478 (41F11_VH_Y50E) (antibody, V domains shown, Kabat positions; also called P1-064478-1) VH: QVQLVESGGGLVKPGGSLRLSCAASGFTFSDYYMSWIRQAPGKGLEWVSEISNSGSPIYYADSVKGRFTISRDNAKNSLYLQMNSLRAEDTAVYYCARDLPGWYFDLWGRGTLVTVSS VL: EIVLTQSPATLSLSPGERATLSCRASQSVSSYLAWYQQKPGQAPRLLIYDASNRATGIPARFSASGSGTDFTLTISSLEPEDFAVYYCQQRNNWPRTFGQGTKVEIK
Kd, nM: 96.5
--
binder: P1-064540 (41F11_VH_T28P/Y50W/S55E/A60H/Y100E) (antibody, V domains shown, Kabat positions; also called P1-064540-1) VH: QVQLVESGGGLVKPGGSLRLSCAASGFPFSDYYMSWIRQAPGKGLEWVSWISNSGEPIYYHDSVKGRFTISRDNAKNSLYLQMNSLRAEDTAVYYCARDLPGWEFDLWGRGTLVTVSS VL: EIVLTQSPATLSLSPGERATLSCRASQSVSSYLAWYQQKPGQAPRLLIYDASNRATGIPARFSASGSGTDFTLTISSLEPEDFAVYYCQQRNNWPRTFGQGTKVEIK
Kd, nM: 0.268
--
binder: P1-064510 (41F11_Vk_A25E/V29D/A64G/R91T) (antibody, V domains shown, also called P1-064510-1) VH: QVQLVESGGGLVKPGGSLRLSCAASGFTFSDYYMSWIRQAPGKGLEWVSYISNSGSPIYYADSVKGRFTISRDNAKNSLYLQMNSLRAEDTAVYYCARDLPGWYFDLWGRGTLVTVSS VL: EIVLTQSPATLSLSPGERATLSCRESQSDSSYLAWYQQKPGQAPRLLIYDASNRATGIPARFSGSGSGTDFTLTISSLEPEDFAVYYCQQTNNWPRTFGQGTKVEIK
Kd, nM: 2.51
--
binder: P1-064500 (41F11_Vk_Q90DA64G) (antibody, V domains shown, also called P1-064500-1) VH: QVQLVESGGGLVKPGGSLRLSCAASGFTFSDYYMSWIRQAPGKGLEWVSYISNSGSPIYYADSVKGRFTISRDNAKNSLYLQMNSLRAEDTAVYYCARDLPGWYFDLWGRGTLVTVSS VL: EIVLTQSPATLSLSPGERATLSCRASQSVSSYLAWYQQKPGQAPRLLIYDASNRATGIPARFSGSGSGTDFTLTISSLEPEDFAVYYCQDRNNWPRTFGQGTKVEIK
Kd, nM: 94.1
